system: HOP-62; experiment: cells; details: Homo sapiens, HOP-62
test readout: pIC50
# pIC50 = -log10(concentration in molar units)

Ask: Fill in the blank: the reported pIC50 of CNC(=O)NC[C@H]1O[C@@H](n2cnc3c(NC(=O)Nc4ccccc4)ncnc32)C(O[Si](C)(C)C(C)(C)C)[C@H]1O[Si](C)(C)C(C)(C)C (stereo partly shown) is ____.
Reply: 4.31

----------
system: KM12; assay: cells; conditions: Homo sapiens, KM12
test readout: IC50 (µM)
Report as a plain number; the unit µM is understood.

Ask: Quick check: IC50 on KM12, item CNC(=O)NC[C@H]1O[C@@H](n2cnc3c(NC(=O)Nc4ccccc4)ncnc32)C(O[Si](C)(C)C(C)(C)C)[C@H]1O[Si](C)(C)C(C)(C)C (stereo partly shown) [Compound 25] ?
Reply: 8.05
